Target Entity: recombinant His6-tagged human FABP5 (Homo sapiens, UniProt Q01469)
Sequence (Q01469 whole entry): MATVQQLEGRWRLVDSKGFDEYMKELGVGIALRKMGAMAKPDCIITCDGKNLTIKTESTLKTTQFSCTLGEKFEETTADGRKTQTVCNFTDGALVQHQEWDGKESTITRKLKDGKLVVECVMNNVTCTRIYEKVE
Protocol Description: Isothermal titration calorimetry
Type: binding
Parameter Measured: Kd
Write the numeric value and append its unit.

Given O=C(O)C(F)(F)C(F)(F)C(F)(F)C(F)(F)C(F)(F)C(F)(F)C(F)(F)F , state its recorded Kd.
77 µM

----------
Target Entity: recombinant His6-tagged human FABP5 (Homo sapiens, UniProt Q01469)
Protocol Description: Isothermal titration calorimetry
Type: binding
Assay Context: read-out: dissociation constant (Kd); ITC, 25 °C, 100 mM NaCl, 30 mM Tris (pH 7.5), 5% glycerol; one-binding-site model; ± error of the fit
Parameter Measured: pKd
FYI, pKd means -log10 of a concentration in mol per litre.

// map O=P(O)(O)C(F)(F)C(F)(F)C(F)(F)C(F)(F)C(F)(F)C(F)(F)C(F)(F)C(F)(F)F [PFOPA, perfluorooctanephosphonic acid] to recorded pKd (system: recombinant His6-tagged human FABP5 (Homo sapiens, UniProt Q01469))
3.78
